- System: wild type (wt)-Xenopus laevis Aurora B/INCENP complex (Xenopus laevis, UniProt Q6DE08)
- Construct: Purified (wt)-Xenopus laevis Aurora B^60-361/INCENP^790-847 complex was stored at −80° C; GST (cleaved yes)
- Sequence (Q6DE08 60-361): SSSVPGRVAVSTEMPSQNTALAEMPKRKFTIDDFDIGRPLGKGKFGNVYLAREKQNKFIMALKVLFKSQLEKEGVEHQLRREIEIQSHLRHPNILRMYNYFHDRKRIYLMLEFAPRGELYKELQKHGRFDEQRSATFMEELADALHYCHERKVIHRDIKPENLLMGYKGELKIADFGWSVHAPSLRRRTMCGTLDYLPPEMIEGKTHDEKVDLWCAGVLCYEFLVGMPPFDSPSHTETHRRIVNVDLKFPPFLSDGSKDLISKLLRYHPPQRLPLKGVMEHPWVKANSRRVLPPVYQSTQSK
- Sequence (O13024 790-847 partner limits assumed): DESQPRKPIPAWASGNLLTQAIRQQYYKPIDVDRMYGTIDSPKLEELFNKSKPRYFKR
- Protocol description: Radioactive kinase assay using wt Xenopus laevis Aurora B/INCENP complex
- Measurement context: 100 μM ATP
Endpoint label: IC50

Lab note: wild type (wt)-Xenopus laevis Aurora B/INCENP complex (Xenopus laevis, UniProt Q6DE08) assay, enter IC50 for O=C(C#Cc1ccc2c(c1)NC(=O)/C2=C(\Nc1ccc(CN2CCCC2)cc1)c1ccccc1)NCC(F)F here
4 nM

Write down the reported IC50 (system: wild type (wt)-Xenopus laevis Aurora B/INCENP complex (Xenopus laevis, UniProt Q6DE08)) of CN(C)Cc1ccc(N/C(=C2\C(=O)Nc3cc(C#CC(=O)NCC(F)F)ccc32)c2ccccc2)cc1
7 nM

Given O=C(C#Cc1ccc2c(c1)NC(=O)/C2=C(\Nc1ccc(CN2CCCC2)cc1)c1ccccc1)NCCF , report its IC50 on wild type (wt)-Xenopus laevis Aurora B/INCENP complex (Xenopus laevis, UniProt Q6DE08).
5 nM

Return reported IC50 for target or system wild type (wt)-Xenopus laevis Aurora B/INCENP complex (Xenopus laevis, UniProt Q6DE08), item CCNC(=O)C#Cc1ccc2c(c1)NC(=O)/C2=C(\Nc1ccc(CN(C)C)cc1)c1ccccc1 .
3 nM

Lab note: record IC50 of CCNC(=O)C#Cc1ccc2c(c1)NC(=O)/C2=C(\Nc1ccc(N2CCN(C)CC2)cc1)c1ccccc1 tested on wild type (wt)-Xenopus laevis Aurora B/INCENP complex (Xenopus laevis, UniProt Q6DE08).
2 nM
